assay_overview: Waters XBridge BEH C18, 150 × 1 mm, 1.7 µm, 30 °C, 0.04 mL/min, estimated dead time 1.9 min; A: 79.7% water + 20% methanol + 0.3% acetic acid; B: 99.7% methanol + 0.3% acetic acid; gradient (min/%B) 0/0 17/58.7 17.2/100 20.2/100
test_settings: stereoisomer not certain
value_type: LC retention time (min)

>>> df
                                    molecule         value_type  value_observed
 0         Nc1ccc2c(c1)C(c1ccccc1)=NCC(=O)N2  LC retention time             6.2
 1  CN1CCC23c4c5ccc(O)c4OC2C(=O)CCC3(O)C1C5 (stereo unspecified)  LC retention time             3.6
 2  COc1ccc2c3c1OC1C(O)C=CC4C(C2)NCCC341 (stereo unspecified)  LC retention time             5.1
 3  CC(=O)OC1C=CC2C3Cc4ccc(O)c5c4C2(CCN3C)C1O5 (stereo unspecified)  LC retention time             6.4
 4     CN1CCCC1c1cccnc1 (stereo unspecified)  LC retention time             3.3
 5  COc1ccc2c3c1OC1C(=O)CCC4(O)C(C2)N(C)CCC314 (stereo unspecified)  LC retention time             5.4
 6       CC(N)Cc1ccccc1 (stereo unspecified)  LC retention time             7.5
 7                Cn1c(=O)c2c(ncn2C)n(C)c1=O  LC retention time               9
 8                     COc1cc(CCN)cc(OC)c1OC  LC retention time               7
 9  CCC(=O)C(CC(C)N(C)C)(c1ccccc1)c1ccccc1 (stereo unspecified)  LC retention time            20.2
10  COC(=O)C1C(OC(=O)c2ccccc2)CC2CCC1N2C (stereo unspecified)  LC retention time            11.8
11  CCC(N)Cc1ccc2c(c1)OCO2 (stereo unspecified)  LC retention time            10.3
12  CNCC1CCCCC1(O)c1cccc(OC)c1 (stereo unspecified)  LC retention time            12.5
13  CNC(C)Cc1ccc2c(c1)OCO2 (stereo unspecified)  LC retention time             8.3
14  CCCc1nn(C)c2c(=O)[nH]c(-c3cc(S(=O)(=O)N4CCN(C)CC4)ccc3OCC)nc12  LC retention time            18.8
15            CN(C)CCC=C1c2ccccc2CSc2ccccc21  LC retention time            19.2
16  COc1ccc(C(CN(C)C)C2(O)CCCCC2)cc1 (stereo unspecified)  LC retention time            15.4
17  COC(=O)C1C2CCC(CC1OC(=O)c1ccccc1)N2 (stereo unspecified)  LC retention time            12.8
18  CN1C(=O)CCC1c1cccnc1 (stereo unspecified)  LC retention time             3.6
19  COC12CCC3(CC1C(C)(O)C(C)(C)C)C1Cc4ccc(O)c5c4C3(CCN1CC1CC1)C2O5 (stereo unspecified)  LC retention time            17.3
20  CNC(C)C(=O)c1ccccc1 (stereo unspecified)  LC retention time             5.6
